- Method summary: NCI Yeast Anticancer Drug Screen. Data for the mec2-1 strain (AID 157)
- Condition set: S. cerevisiae mec2-1 strain, at 50.0 µM (retest, dose inferred, filed as 5.0)
The panel holds about 79,000 compounds, 15% with a hit somewhere; the sample as a whole holds those more often. Active and inactive are the calls of the source. Rule as the data show it: active = growth inhibition above about 70%; inactive = the rest.
Hello, when you answer, please use one of the following outcomes: yes (1) = active, no (0) = inactive

These recorded examples may help you get a feel for the data.
NC(=O)/C=C/C(=O)O (tested in a mixture with another compound)
no (0)
COC1=[C]([Hg][Br])C(OC)OC1OC (centres undefined)
yes (1)
COC(=O)C1=C(C)N2CCSC2(C)C(C(=O)OC)C1c1cccc(Cl)c1 (centres undefined)
yes (1)
CCC1(CC)C(=O)[N-]C(=O)[N-]C1=O.[Au+].[Au+].c1ccc([PH+](c2ccccc2)c2ccccc2)cc1.c1ccc([PH+](c2ccccc2)c2ccccc2)cc1
yes (1)
O=c1oc2ccccc2c(O)c1C(c1ccc2ccccc2c1)c1c(O)c2ccccc2oc1=O
yes (1)

In this assay, the call recorded for CCC[CH2][Sn]1([CH2]CCC)[O]C(=O)C(C(C)C)N=Cc2ccccc2[O]1 (centres undefined) was what?
no (0)

// return assay outcome for O=[C-]CCCCCC[C-]=O.[C-]#[O+].[C-]#[O+].[C-]#[O+].[C-]#[O+].[Fe+6].[Fe+6].[c-]1[c-][c-][cH-][c-]1.[c-]1[c-][c-][cH-][c-]1
yes (1)

Name the outcome recorded for CCOC(=O)C1C2c3ccccc3C(c3ccccc32)C1C(=O)OCC (centres undefined) in the assay.
no (0)

Tell me the recorded outcome of this test for CN1CN(c2ccccc2)C2(CCN(C3Nc4ccccc4O3)CC2)C1=O (centres undefined) .
no (0)

Recorded test outcome, item CCOC(=S)S
yes (1)

Status in this test for O=C(COc1ccc(Cl)c(Cl)c1)N(Cc1ccccc1)Cc1ccc[n+](Cc2ccc(S(=O)(=O)F)cc2)c1 ?
yes (1)

// param item: O=[N+]([O-])O.[NH-]C1CCCCC1[NH-].[NH-]C1CCCCC1[NH-].[NH-]C1CCCCC1[NH-].[OH-].[OH-].[OH-].[Pt+4].[Pt+4].[Pt+4] (centres undefined) ; yields the recorded call
no (0)

What call does the record list for CC(CN1CCCCCCC1)C(C#N)(c1ccccc1)c1ccccc1 (centres undefined) ?
no (0)

Outcome? C=Cc1cc(OC)c2c(c1)c(=O)oc1c2cc(OC)c2c(O)ccc(C3OC(C)C(O)C(C)(O)C3O)c21 (centres undefined)
yes (1)

----------
- Method summary: NCI Yeast Anticancer Drug Screen. Data for the rad50 strain (AID 155);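 also: 0% = growth of vehicle-only cultures of the same strain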
- Condition set: S. cerevisiae rad50 strain growth inhibition; at 50.0 µM
This is part of a sample that, as a whole, favours compounds with a hit. Of some 79,000 tested, about 15% had one in any assay. Calls of active or inactive are those of the source. No stated cut-off is given here; in the data, active means growth inhibition above about 70%; inactive means the rest.
// allowed return values: t (active), f (inactive)

COC(=O)C(Cl)(Br)CCl (stereo not given)
f

Call for entry ClCCN(CCCl)CCN1c2ccccc2Sc2ccc(Cl)cc21 :
t

Please share the test call associated with COC([CH2][Hg][n]1cnc2c1c(=O)n(C)c(=O)n2C)CN1C(=O)c2ccccc2S1(=O)=O (stereo not given) .
t

Which result was noted for this compound in the test: C[N-]c1nnnn1C.[Au+].c1ccc([PH+](c2ccccc2)c2ccccc2)cc1
t

Just curious, what result did COc1c(Br)cc(/C=C(/C)[N+](=O)[O-])cc1Br get here?
t

----------
- Method summary: NCI Yeast Anticancer Drug Screen. Data for the sgs1 strain (AID 173);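 also: 0% = growth of vehicle-only control cultures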
- Condition set: S. cerevisiae sgs1 mutant, at 33.0 µM, active compounds read high
Compounds without any hit were thinned out: in the full panel of roughly 79,000, 15% have a hit.
Let's look at some compounds and their measured growth inhibition.
Provide only the numeric value, understood in %.

Solved entries (count: 4):
O=[N+]([O-])c1cc([As](Br)c2ccc(O)c([N+](=O)[O-])c2)ccc1O
99
CC(C)(C)c1cc([N+](=O)[O-])cc([N+](=O)[O-])c1O
40
C[C@]12CCc3nonc3C1CC[C@@H]1C2CC[C@]2(C)C(=O)CCC12 (stereo not given in full)
50
Nc1nc(N)c(-c2ccc(Cl)c(Cl)c2)c(CP(Cl)(Cl)(Cl)Br)n1
74

Fill blank: measured growth inhibition of the compound O=C1NC(=S)NC(=O)C1=Cc1ccc([N+](=O)[O-])o1 is ____.
32

Requested field: growth inhibition. Item: CC1=C(O)C(=O)C=C2C1=CC=C1[C@@]2(C)CCC2(C)[C@@H]3C[C@@H](C)C(=O)C[C@]3(C)CC[C@]12C (stereo not given in full)
97

Could you tell me which growth inhibition is on file for Cc1c([N+](=O)[O-])oc2ccc3ccccc3c12 ?
86

Look up growth inhibition: CCCN(CCC)c1c([N+](=O)[O-])cc(S(N)(=O)=O)cc1[N+](=O)[O-]
30

Item CC[C@](O)(C(=O)O)c1cc2n(c(=O)c1CO)Cc1cc3ccccc3nc1-2 has what recorded growth inhibition?
95

----------
Recorded growth inhibition, one value per entry.
- Method summary: NCI Yeast Anticancer Drug Screen. Data for the wt1 strain (AID 149);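 also: 0% = growth of vehicle-treated wt1 cultures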
- Condition set: S. cerevisiae wt1 strain (SPY 50644) growth inhibition; at 11.0 µM; active compounds read high
About 79,000 compounds went through this panel and 15% of them were active in at least one assay; those are over-represented in the sample as a whole.
Answer in %, number only, no unit symbol.

Would you please look over these solved cases?
Nc1ccccc1C(=O)OCCc1ccccc1
-23
N#CC(C#N)=Cc1ccc(C#N)cc1
-3

Please look up its growth inhibition: CCC1(O)C(=O)OCc2c1cc1n(c2=O)Cc2c-1nc1ccccc1c2OC (stereo unspecified)
13

Quick one: growth inhibition of COC(=O)C(F)C(Br)C(=O)OC (stereo unspecified) ?
97

Value lookup for growth inhibition; key = C[CH2][Sn]([CH2]C)([O]S(C)(=O)=O)[O]S(C)(=O)=O
-15

Bench note: what growth inhibition did CCC1(O)C(=O)OCc2c1cc1n(c2=O)Cc2cc3cc(Cl)ccc3nc2-1 (stereo unspecified) show?
16

Entry CCCCCCCCCCCCCCCCP(=O)(O)OCC(N)C(=O)O (stereo unspecified) : reported growth inhibition = ?
-46

----------
- Method summary: NCI Yeast Anticancer Drug Screen. Data for the mec2-1 strain (AID 157)
- Condition set: S. cerevisiae mec2-1 strain, at 33.0 µM
- Description: Growth inhibition of yeast strains with defined genetic alterations is measured as a screen for potential anti-cancer activity. Selected strains with alterations in DNA damage repair or cell cycle control were exposed to compounds and growth inhibition was measured relative to vehicle treated controls. The strain used in this assay is mec2-1
About 79,000 compounds went through this panel and 15% of them were active in at least one assay; those are over-represented in the sample as a whole. The source made the active and inactive calls. No stated cut-off is given here; in the data, active means growth inhibition above about 70%; inactive means the rest.
Hi! Could you answer with just one of these? True (active), False (inactive)

CC[PH+](CC)CC.CC[PH+](CC)CC.[Au]
True
Nc1ccc(Cl)cc1C(=O)c1ccccc1
False

Could you kindly confirm the outcome this assay logged for C[N+](CCCl)(CCCl)Cc1cccc2cccc([N+](=O)[O-])c12 ?
False

What was the test verdict on COc1cc(O)c2c(O)c3c(c4c2c1[C@]1(C4)C(C)=CCCC1(C)C)[C@H](O)[C@@]1(O)CC(=O)C(C(N)=O)=C(O)[C@@]1(O)C3=O ?
True

Outcome? C[C@@]12CCC(=O)C=C1CC[C@H]1C2=CC[C@]2(C)C1CC[C@@]2(C)O (some centres undefined)
True

Which outcome did this test record for the compound O=C1C2CC(Cl)C(SSC3CC4C(=O)N(SC(Cl)(Cl)C(Cl)Cl)C(=O)C4CC3Cl)CC2C(=O)N1SC(Cl)(Cl)C(Cl)Cl (centres undefined) ?
True

Write down the call the test reported for this compound. Item: O=S(=O)(O)c1ccc(Cl)cc1.[Cd]
False

Which outcome was entered for the compound COc1cc(C2c3cc4c(cc3[C@@H](Nc3ccc(N)cc3)C3COC(=O)[C@H]23)OCO4)cc(OC)c1O (some centres undefined) in this test?
True

Outcome? CC1=C(N2CC2)C(=O)c2ccccc2C1=O
False

# fetch the recorded call for Oc1cccc2nc3ccccc3nc12 here
False

Called result for CC1CN=C(Nc2ccccc2)S1 (centres undefined)
False

Status in this test for O=C1c2ccccc2C(=O)C(Cl)C1Cl (centres undefined) ?
True

Would you mind telling me which call this test gave O=C1C=CC(=O)C1(Br)Br ?
True

----------
- Method summary: NCI Yeast Anticancer Drug Screen. Data for the cln2 rad14 strain (AID 165);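 also: 0% = growth equal to vehicle treated cultures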
- Condition set: S. cerevisiae cln2 rad14 strain, at 50.0 µM (retest, dose inferred, filed as 5.0), active compounds read high
- Description: Growth inhibition of yeast strains with defined genetic alterations is measured as a screen for potential anti-cancer activity. Selected strains with alterations in DNA damage repair or cell cycle control were exposed to compounds and growth inhibition was measured relative to vehicle treated controls. The strain used in this assay is cln2 rad14
About 79,000 compounds went through this panel and 15% of them were active in at least one assay; those are over-represented in the sample as a whole.
Classify by measured growth inhibition: fulfilled if it is equal to or exceeds 40%, not fulfilled if it is smaller.

CN(CCc1ccc(Br)cc1)CCN1CCCCC1
fulfilled
O=C(O)c1ccccc1[Se][Se]c1ccccc1C(=O)O
fulfilled
CC1(C)OC2OC3C(CN(CCCl)Cc4ccccc4)OC(c4ccccc4)OC3C2O1 (centres undefined)
not fulfilled
N#Cc1cc(N(CCCl)CCCl)c([N+](=O)[O-])cc1[N+](=O)[O-]
fulfilled
OC1CCCC[CH]1[Hg][Cl] (centres undefined)
fulfilled
Cc1c2ccccc2cc2ccccc12
fulfilled
CCCCCCCC1(c2ccc(N)cc2)CCC(=O)NC1=O (centres undefined)
not fulfilled
Oc1ccc2ccccc2c1O
not fulfilled
COc1ccc(C(Cc2ccc(Cl)c(Cl)c2)NCCO)cc1 (centres undefined)
not fulfilled
CC(C)CC(NC(=O)C(N)C(C)C)C(=O)NC(CCCCN)C(=O)Nc1ccc(N(CCCl)CCCl)cc1 (centres undefined)
not fulfilled

Does growth inhibition meet or surpass 40% for O=C(N/N=C/c1ccc(F)cc1)c1ccc(N(CCCl)CCCl)cc1 ?
not fulfilled
